Listing: pIC50 of selected molecules
experimentalSystem: Plasminogen activator inhibitor 1 (Homo sapiens)
Sequence (P05121 whole entry): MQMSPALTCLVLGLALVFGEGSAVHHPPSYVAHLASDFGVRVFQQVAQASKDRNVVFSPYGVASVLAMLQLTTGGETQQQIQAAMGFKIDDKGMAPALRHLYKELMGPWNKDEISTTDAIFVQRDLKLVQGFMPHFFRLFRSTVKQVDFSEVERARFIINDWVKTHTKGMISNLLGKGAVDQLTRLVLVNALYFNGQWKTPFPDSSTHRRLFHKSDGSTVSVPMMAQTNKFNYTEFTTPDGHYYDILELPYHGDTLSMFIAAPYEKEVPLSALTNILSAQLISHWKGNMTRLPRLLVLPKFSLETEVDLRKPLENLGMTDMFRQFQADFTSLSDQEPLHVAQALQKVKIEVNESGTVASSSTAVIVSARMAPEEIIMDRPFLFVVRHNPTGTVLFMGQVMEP
test: Inhibitory activity against plasminogen activator inhibitor 1 (PAI-1) was evaluated by inhibition of tissue plasminogen activator/PAI-1 complex formation in t-PA-induced fibrin clot lysis assay
pIC50: −log10 of the molar value.

[
  {
    "compoundStructureString": "O=C(O)/C(=C/c1sc2cc(OCc3ccc(-c4ccccc4)cc3)c(OCc3ccc(-c4ccccc4)cc3)cc2c1Oc1ccc2ncccc2c1)c1ccncc1",
    "pIC50": 5.22
  },
  {
    "compoundStructureString": "Cc1ccc(Oc2c(/C=C(/C(=O)O)c3ccncc3)sc3cc(OCc4ccc(-c5ccccc5)cc4)c(OCc4ccc(-c5ccccc5)cc4)cc23)cn1",
    "pIC50": 5.61
  },
  {
    "compoundStructureString": "O=C(O)/C(=C/c1sc2cc(OCc3ccc(-c4ccccc4)cc3)c(OCc3ccc(-c4ccccc4)cc3)cc2c1Oc1cccc(F)c1)c1ccncc1",
    "pIC50": 6.62
  },
  {
    "compoundStructureString": "O=C(O)/C(=C/c1sc2cc(OCc3ccccc3-c3ccccc3)c(OCc3ccccc3-c3ccccc3)cc2c1Oc1ccc(Cl)cc1)c1ccncc1",
    "pIC50": 4.97
  },
  {
    "compoundStructureString": "O=C(O)/C(=C/c1sc2cc(OCc3ccc(-c4ccccc4)cc3)c(OCc3ccc(-c4ccccc4)cc3)cc2c1Oc1cccnc1)c1ccncc1",
    "pIC50": 5.62
  },
  {
    "compoundStructureString": "O=C(O)/C(=C/c1sc2cc(OCc3cccc(-c4ccccc4)c3)c(OCc3cccc(-c4ccccc4)c3)cc2c1Oc1ccc(Cl)cc1)c1ccncc1",
    "pIC50": 6.66
  },
  {
    "compoundStructureString": "COc1ccc(/C=c2\\[nH]c(=O)/c(=C/c3ccccc3)[nH]c2=O)cc1",
    "pIC50": 4.23
  },
  {
    "compoundStructureString": "O=C(O)/C(=C/c1sc2cc(OCc3ccc(Oc4ccccc4)cc3)c(OCc3ccc(Oc4ccccc4)cc3)cc2c1Oc1ccc(Cl)cc1)c1ccncc1",
    "pIC50": 7.00
  },
  {
    "compoundStructureString": "CN(C)CCSc1ccc(/C=c2\\[nH]c(=O)/c(=C/c3ccccc3)[nH]c2=O)cc1",
    "pIC50": 4.29
  },
  {
    "compoundStructureString": "O=C(O)/C(=C/c1sc2cc(OCc3ccc(-c4ccccc4)cc3)c(OCc3ccc(-c4ccccc4)cc3)cc2c1Oc1ccc(-n2ccnc2)cc1)c1ccncc1",
    "pIC50": 5.54
  },
  {
    "compoundStructureString": "O=C(O)/C(=C/c1sc2cc(OCc3ccc(-c4ccccc4)cc3)c(OCc3ccc(-c4ccccc4)cc3)cc2c1Oc1ccc(Oc2ccncc2)cc1)c1ccncc1",
    "pIC50": 4.97
  },
  {
    "compoundStructureString": "O=C(O)/C(=C/c1sc2cc(OCc3ccc(S(=O)(=O)c4ccccc4)cc3)c(OCc3ccc(S(=O)(=O)c4ccccc4)cc3)cc2c1Oc1ccc(Cl)cc1)c1ccncc1",
    "pIC50": 6.11
  },
  {
    "compoundStructureString": "Cc1cc(Oc2c(/C=C(/C(=O)O)c3ccncc3)sc3cc(OCc4ccc(-c5ccccc5)cc4)c(OCc4ccc(-c5ccccc5)cc4)cc23)cc(C)c1Cl",
    "pIC50": 5.96
  },
  {
    "compoundStructureString": "O=C(O)/C(=C/c1sc2cc(OCc3ccc(-c4ccccc4)cc3)c(OCc3ccc(-c4ccccc4)cc3)cc2c1Oc1ccc(F)c(F)c1)c1ccncc1",
    "pIC50": 6.23
  },
  {
    "compoundStructureString": "Cc1cc(Oc2c(/C=C(/C(=O)O)c3ccncc3)sc3cc(OCc4ccc(-c5ccccc5)cc4)c(OCc4ccc(-c5ccccc5)cc4)cc23)ccc1Cl",
    "pIC50": 6.32
  },
  {
    "compoundStructureString": "O=C(O)/C(=C/c1sc2cc(OCc3ccc(-c4ccccc4)cc3)c(OCc3ccc(-c4ccccc4)cc3)cc2c1Oc1ccc(Cl)nc1)c1ccncc1",
    "pIC50": 5.68
  }
]
